- System: antibodies in sera from SARS patients (sera 1a, 1b, 2, 6, 37, 62, London, SARS-yellow, SARS-green)
- Assay type: binding, human
Parameter: Binding of serum 1a to linear peptides of protein N of SARS-CoV Urbani
Numbers only.

Solved cases below.
Sequence Record: NGPQSNQRSAPRITF
Reported Measurement: 0.2
--
Sequence Record: ATEGALNTPKDHIGT
Reported Measurement: 0.2
--
Sequence Record: SGPDDQIGYYRRATR
Reported Measurement: 0.2
--
Sequence Record: RPQGLPNNTASWFTA
Reported Measurement: 0.3
--
Sequence Record: SDNGPQSNQRSAPRI
Reported Measurement: 0.2
--
Sequence Record: YHGAIKLDDKDPQFK
Reported Measurement: 0.3

Value sought for every listed sequence: Binding of serum 1a to linear peptides of protein N of SARS-CoV Urbani.
1. RITFGGPTDSTDNNQ
2. FAPSASAFFGMSRIG
3. DDFSRQLQNSMSGAS
4. ANKEGIVWVATEGAL
5. LTYHGAIKLDDKDPQ
6. IVWVATEGALNTPKD
7. PRWYFYYLGTGPEAS
8. PSGTWLTYHGAIKLD

0.2
0.2
0.2
0.2
0.2
0.2
0.3
0.3

Batch request: Binding of serum 1a to linear peptides of protein N of SARS-CoV Urbani per item, same order as input.
1. QSNQRSAPRITFGGP
2. KEGIVWVATEGALNT
3. FTALTQHGKEELRFP
4. PNNTASWFTALTQHG

1: 0.2; 2: 0.2; 3: 0.3; 4: 0.2

###

- System: antibodies in sera from SARS patients (sera 1a, 1b, 2, 6, 37, 62, London, SARS-yellow, SARS-green)
- Assay type: binding, human
Parameter: Binding of serum London to linear peptides of protein N of SARS-CoV Urbani
One number for each entry.

Sequence Record: GARPKQRRPQGLPNN
Reported Measurement: 0.5

Value sought for every listed sequence: Binding of serum London to linear peptides of protein N of SARS-CoV Urbani.
1. IAQFAPSASAFFGMS
2. WLTYHGAIKLDDKDP
3. FYYLGTGPEASLPYG

1. 0.4
2. 0.6
3. 0.5

List the reported Binding of serum London to linear peptides of protein N of SARS-CoV Urbani of each sequence below.
1. NNQNGGRNGARPKQR
2. PRWYFYYLGTGPEAS

1: 0.5; 2: 0.5

Would you mind giving Binding of serum London to linear peptides of protein N of SARS-CoV Urbani for every sequence in the list below?
1. TYHGAIKLDDKDPQF
2. GGRNGARPKQRRPQG
3. SNQRSAPRITFGGPT

[0.6, 0.5, 0.4]

Can you give me Binding of serum London to linear peptides of protein N of SARS-CoV Urbani for all of these, one by one?
1. TPSGTWLTYHGAIKL
2. QPLPQRQKKQPTVTL
3. NGGRNGARPKQRRPQ
4. IGYYRRATRRVRGGD

1. 0.7
2. 1.3
3. 0.5
4. 0.4

Parameter requested: Binding of serum London to linear peptides of protein N of SARS-CoV Urbani. Apply to each item below.
1. NNNAATVLQLPQGTT
2. MSRIGMEVTPSGTWL
3. ATEGALNTPKDHIGT
4. PSGTWLTYHGAIKLD
5. MKELSPRWYFYYLGT

1: 0.5; 2: 0.5; 3: 0.5; 4: 0.7; 5: 0.4
